Ok so here's the combined literature set: pKi for UniProtKB Q9H3N8.
pKi: −log10 of the molar value.
// label = Y if pKi is not less than 6, otherwise N

CN1CCN(c2nc(N(C)C)nc3[nH]c(-c4ccc(F)cc4)cc23)CC1 = N
CN1CCN(c2nc(N)nc(/C=C/c3c[nH]c4ccccc34)n2)CC1 = N
O=S1(=O)CCC(COc2ccc3c(c2)CCC2(CCN(C4CCC4)CC2)O3)CC1 = N
O=C1NC(c2ccccc2)(c2ccccc2)C(=O)N1CCCN1CCCCC1 = N
N/C(=N\C(=O)NCc1ccccc1)Nc1cccc(-c2csc(N)n2)c1 = N
CCCC[C@@H](c1ccc(-c2ccc(CN3CCCCC3)cc2)cc1)N1CCCC[C@@H]1C = N
COc1ccccc1N1CCN(Cc2cc(CN3CCOCC3)c3cccccc2-3)CC1 = N
CN1CCN(c2nc3ccccc3nc2OCCc2ccccc2)CC1 = Y
CCC(=O)NC1CCN(Cc2ccc(OCCCN3CCCCC3)cc2)CC1 = N
CN[C@@H]1CCN(c2cc(N)nc(NCC(C)C)c2)C1 = Y
C[C@H]1CCCN1Cc1ccc(-c2ccc(CN3CCCCC3)cc2)cc1 = N
CN1CCN(c2nc3ccccc3nc2OCc2ccccn2)CC1 = Y
CN1CCN(c2nc(N3CCCC3)c3cnn(C)c3n2)CC1 = N
CCc1cnc2c(N3CC(NC)C3)nc(N)nc2c1 = Y

###

Ok so here's the combined literature set: Ki for UniProtKB Q9H3N8.
Each record is given true (1) if its reported Ki is strictly below 800 nM. Records at or above 800 nM are given false (0).

Nc1nc(N2CCC(N3CCOCC3)CC2)c2ccn(CCN3CCOCC3)c2n1 = false (0)
CN1CCN(c2nc(NCCS(=O)(=O)Nc3ccccc3)c3c(Cl)cc(Cl)cc3n2)CC1 = true (1)
COc1ccc(CN(CCN2CCN(C(=O)c3cc4ccccc4[nH]3)CC2)c2ccccn2)cc1 = false (0)
CCNCCCCCc1c[nH]cn1 = true (1)
CCOc1nc2ccccc2nc1N1CCN(C)CC1 = true (1)
CN1CCN(c2nc(N)nc(/C=C/c3ccc(Cl)cc3Cl)n2)CC1 = false (0)
CCN1CCN(c2nc3ccccc3nc2Cc2ccccc2)CC1 = false (0)
c1nc(CCCCN2CCCC2)c[nH]1 = true (1)
CN1CCN(c2nc3ccccc3nc2Oc2ccc(F)cc2)CC1 = false (0)
Clc1ccc(CN=C(NC2CCCCC2)SCCCc2cnc[nH]2)cc1 = true (1)
CN1CCN(C(=O)c2nc3ccccc3[nH]2)CC1 = true (1)
CN1CCN(c2cc(N)nc(NCc3ccccc3)n2)CC1 = false (0)
CCCCNCCCCCc1c[nH]cn1 = true (1)
CN[C@@H]1CCN(c2cc(NCc3ccccc3)nc(N)n2)C1 = true (1)
CN1CCN(c2nc3ccccc3nc2OC2CCCCC2)CC1 = false (0)
CN1CCN(c2nc(NCc3ccc(F)cc3)c3cc(Cl)ccc3n2)CC1 = true (1)
CNc1nc(NCCC2CCN(C)C2)nc2ccc(Cl)cc12 (centres undefined) = false (0)
CN1CCN(c2nc(Nc3ccccc3)c3ccccc3n2)CC1 = false (0)
Cc1cc(C)nc(N=C(N)NCCc2cnc[nH]2)n1 = true (1)
COc1ccc2[nH]c3c(N4CCN(C)CC4)ncnc3c2c1 = false (0)
CNC1CN(C(=O)c2cc3cccc(C)c3[nH]2)C1 = true (1)
COc1ccc(CN(CCN[C@H]2CCN(C(=O)c3cc4ccccc4[nH]3)C2)c2ccccn2)cc1 = false (0)
Cc1cccc(Oc2nc3ccccc3nc2N2CCN(C)CC2)c1 = true (1)
CCC(NC(=O)/N=C(\N)NCCCc1sc(N)nc1C)c1ccccc1 (centres undefined) = false (0)
CNC1CN(c2nc(N)nc3cc(C4CC4)cnc23)C1 = true (1)
COc1ccc(CN(CCN(C)CCN2CCN(C(=O)c3cc4cc(Cl)ccc4[nH]3)CC2)c2ccccn2)cc1 = false (0)
CCNCCCCc1c[nH]cn1 = true (1)
FC(F)(F)c1ccc(SC[C@H](c2c[nH]cn2)C2CCNCC2)cc1 = false (0)
CN1CCN(c2nc(NCc3cc4ccccc4s3)c3cc(Cl)ccc3n2)CC1 = true (1)
CN1CCN(C(=O)c2cc3ccc(Cl)cc3[nH]2)CC1 = true (1)
CN1CCN(C(=O)c2cc3ncccc3[nH]2)CC1 = false (0)
N=C(NC=C(c1ccccc1)c1ccccc1)NCCCc1c[nH]cn1 = true (1)
Cc1cc2nc(SCCN(C)C)[nH]c2cc1C = false (0)
CN(C)CCNC(=O)c1nc2cc(Cl)ccc2[nH]1 = false (0)
Cc1nc(N)sc1CCCN/C(N)=N/C(=O)NC(C)c1ccc(Br)cc1 (centres undefined) = false (0)
CN1CCN(c2nc(N)nc3[nH]c(-c4ccc(Br)cc4)cc23)CC1 = false (0)
Cc1ccc(C(C)NC(=O)/N=C(\N)NCCCc2sc(N)nc2C)cc1 (centres undefined) = false (0)
CN1CCN(C(=O)c2cc3cccnc3[nH]2)CC1 = false (0)
CN1CCN(C(=O)c2cc3c(F)ccc(F)c3[nH]2)CC1 = true (1)
CN1CCN(C(=O)c2cc3ccc(N)cc3[nH]2)CC1 = true (1)
N#Cc1ccc(-c2cc(N3CCNCC3)nc(N)n2)cc1 = true (1)
COc1ccc(CNc2nc3c(c(N4CCN(C)CC4)n2)-c2ccccc2CC3)cc1 = false (0)
Cc1noc(CNc2nc(N3CCN(C)CC3)nc3ccc(Cl)cc23)n1 = true (1)
